target: LILRA4 (human (not printed on the sheet), UniProt P59901); test: LILR reporter cells on coated antibody, GFP positive (%)
Sequence (P59901 24-446 limits assumed): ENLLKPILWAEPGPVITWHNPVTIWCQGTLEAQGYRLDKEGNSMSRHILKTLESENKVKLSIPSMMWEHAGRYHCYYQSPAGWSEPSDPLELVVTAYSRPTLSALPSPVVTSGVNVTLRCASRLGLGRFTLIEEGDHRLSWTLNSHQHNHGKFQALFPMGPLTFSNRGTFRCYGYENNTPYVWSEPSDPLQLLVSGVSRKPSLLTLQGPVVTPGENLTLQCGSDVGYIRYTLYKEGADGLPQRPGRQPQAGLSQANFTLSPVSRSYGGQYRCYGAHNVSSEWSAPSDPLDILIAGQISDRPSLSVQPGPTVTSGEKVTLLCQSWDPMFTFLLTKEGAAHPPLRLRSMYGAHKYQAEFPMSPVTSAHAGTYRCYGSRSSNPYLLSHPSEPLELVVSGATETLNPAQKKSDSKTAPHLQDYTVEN

>  <binder>
h193 antibody No. 35 (h193-H7 / h193-K1) (antibody, V domains shown) VH: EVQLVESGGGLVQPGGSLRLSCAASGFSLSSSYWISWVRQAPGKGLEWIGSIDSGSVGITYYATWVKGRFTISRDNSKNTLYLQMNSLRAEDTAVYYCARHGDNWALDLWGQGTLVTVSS VL: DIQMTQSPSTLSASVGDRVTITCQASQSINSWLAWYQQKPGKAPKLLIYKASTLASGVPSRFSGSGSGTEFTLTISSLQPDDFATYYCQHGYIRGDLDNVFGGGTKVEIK

>  <binding result>
no binding

$$$$
>  <binder>
h193 antibody No. 33 (h193-H6 / h193-K3) (antibody, V domains shown) VH: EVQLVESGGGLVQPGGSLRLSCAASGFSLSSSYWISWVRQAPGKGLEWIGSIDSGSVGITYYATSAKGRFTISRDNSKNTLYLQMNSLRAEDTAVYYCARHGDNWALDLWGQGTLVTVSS VL: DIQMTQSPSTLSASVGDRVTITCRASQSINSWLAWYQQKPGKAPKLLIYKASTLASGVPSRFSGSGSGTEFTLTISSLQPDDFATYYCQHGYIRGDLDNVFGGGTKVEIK

>  <binding result>
no binding

$$$$
>  <binder>
h193 antibody No. 31 (h193-H6 / h193-K1) (antibody, V domains shown) VH: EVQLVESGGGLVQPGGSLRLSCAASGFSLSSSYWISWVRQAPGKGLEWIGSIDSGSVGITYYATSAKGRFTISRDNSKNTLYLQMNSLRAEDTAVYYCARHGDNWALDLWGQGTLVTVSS VL: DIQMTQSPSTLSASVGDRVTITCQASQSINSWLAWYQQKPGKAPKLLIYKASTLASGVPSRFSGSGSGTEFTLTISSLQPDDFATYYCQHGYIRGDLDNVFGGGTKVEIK

>  <binding result>
no binding

$$$$

Data credit: patent US20210371518A1
